Readout type: glass transition temperature (°C)
Lab book: enter the figure in °C, no units written.

// below: answered compounds
Compound	glass transition temperature [°C]
*CCCCCCO* (repeat unit)	-71.6
*CC(*)c1ccc(C(C)CC)cc1 (repeat unit)	85.4
*CC(*)c1cccc(CO)c1 (repeat unit) [Poly(m-hydroxymethyl styrene) ]	124.4
*CC(*)(C)C(=O)OCC(C)C (repeat unit) [Poly(isobutyl methacrylate) ]	47.4
*CC(*)c1ccccc1OCCCCCCCC (repeat unit)	12

Kindly review the next compound as well.
// field: glass transition temperature; key: *CC(*)c1ccc(OC)cc1C (repeat unit) ; value = 87.4

---

Readout type: glass transition temperature (°C)
# number only, unit °C dropped from output

Recorded glass transition temperature, per entry:
Molecule	Unit label	Observed
*CCCCCCNC(=O)c1cc(NC(=O)C(C(C)CC)N2C(=O)c3ccccc3C2=O)cc(C(=O)N*)c1 (repeat unit)	°C	135.00
*C1C(=O)N(c2c(CC)cccc2CC)C(=O)C1* (repeat unit)	°C	288.00
*c1ccc(Oc2ccc(-c3nnc(*)o3)cc2)cc1 (repeat unit)	°C	240.00

get_value(item= *CCC1CC(*)C2C3CC(c4ccc(COC(C)CC)cc4)C(C3)C12 (repeat unit) , readout=glass transition temperature) returns 139.00

The molecule identified as *CC(*)c1ccc(COCCOCCCC)cc1 (repeat unit) registered its glass transition temperature at -38.00

---

Tick Met if glass transition temperature is 40 °C or greater. Tick Not met if glass transition temperature is less than 40 °C.

Consider the worked cases shown below.
Molecule	Group label
*N=P(N=P(N=S(*)(=O)NC)(NC)NC)(NC)NC (repeat unit)	Not met
*Oc1ccc(CC(NC(=O)Cc2ccc(OC(=O)CC(C)CCC(*)=O)cc2)C(=O)OCCCCCC)cc1 (repeat unit)	Not met
*CCCCCCCCCCCCOC(=O)c1ccc2cc(C(=O)O*)ccc2c1 (repeat unit)	Met

In: Identify whether the reported glass transition temperature of the following molecule is 40 °C or greater: *CCCCCCCCCCCCNC(=O)c1ccc(C(=O)N*)c(Sc2ccccc2)c1 (repeat unit)
Out: Met

In: Check the entry *ON(C(F)(F)C(*)(F)F)C(F)(F)C(F)(F)Br (repeat unit) : does glass transition temperature equal or exceed 40 °C?
Out: Not met

In: // inclusive: glass transition temperature at least 40 °C? input: *CCN(*)C(=O)CCCCCCC (repeat unit)
Out: Not met

In: Is glass transition temperature at least 40 °C? Consider *NC(=O)Nc1ccc(Cc2ccc(NC(=O)Nc3cccc(*)n3)cc2)cc1 (repeat unit)
Out: Met

In: For this molecule, is measured glass transition temperature 40 °C or higher? *O[Si](*)(c1ccccc1)c1ccc(OC(C)(C)C)cc1 (repeat unit)
Out: Met

In: Decide: is the reported value of glass transition temperature for *Cc1ccc(CSS*)cc1 (repeat unit) equal to or greater than 40 °C?
Out: Not met

In: Dear colleague, could you confirm whether *Oc1ccc(Oc2ccc(C(=O)c3ccc(NC(=O)CCCCCCCCC(=O)Nc4ccc(C(=O)c5ccc(*)cc5)cc4)cc3)cc2)cc1 (repeat unit) has glass transition temperature at or above 40 °C?
Out: Met

In: Hi team, for *c1ccc2c(c1)C(=O)N(c1ccc(N(c3ccc(/C=C/c4ccc([N+](=O)[O-])cc4)cc3)c3ccc(N4C(=O)c5ccc(C(*)(C(F)(F)F)C(F)(F)F)cc5C4=O)cc3)cc1)C2=O (repeat unit) , is the recorded glass transition temperature at or above 40 °C?
Out: Met

In: Is glass transition temperature at least 40 °C? Consider *CCCCCCCCCCOc1ccc(-c2cc(-c3ccccc3)c(-c3ccc(NC(=O)c4ccc(C(=O)Nc5ccc(-c6c(-c7ccccc7)cc(-c7ccc(O*)cc7)cc6-c6ccccc6)cc5)cc4)cc3)c(-c3ccccc3)c2)cc1 (repeat unit)
Out: Met

In: Hello, I need to know if *Nc1ccc(C(c2ccc(NC(=O)c3cc(NC(=O)CCCCCN4C(=O)c5ccccc5C4=O)cc(C(*)=O)c3)cc2)(C(F)(F)F)C(F)(F)F)cc1 (repeat unit) has measured glass transition temperature not below 40 °C. Thanks!
Out: Met

In: Reported glass transition temperature reaches at least 40 °C for *CC(*)C(=O)Oc1cc(C)cc(C)c1 (repeat unit) ?
Out: Met

In: Form field: glass transition temperature at least 40 °C? Entry: *Oc1ccc(OC(=O)c2cc(OCCCCCCCCCOCC3CCCN3c3ccc([N+](=O)[O-])cc3)c(C(*)=O)cc2OCCCCCCCCCOCC2CCCN2c2ccc([N+](=O)[O-])cc2)cc1 (repeat unit)
Out: Not met

---

Record class 1 whenever glass transition temperature is at 100 °C or higher; record class 0 when lower.

Past entries and their recorded results:
Compound	Group label
*Oc1ccc(C(CC)c2ccc(OC(*)=S)cc2)cc1 (repeat unit)	class 1
*Oc1ccc2cc(OC(=O)c3cccc(Oc4ccc(Oc5cccc(C(*)=O)c5)cc4)c3)ccc2c1 (repeat unit)	class 1
*CC(*)(C)C(=O)OCC(F)(F)F (repeat unit) [Poly(2,2,2-trifluoroethyl methacrylate)]	class 0
*Oc1ccc(C2(c3ccc(OC(*)=O)cc3)CC3CC2C2C4CCC(C4)C32)cc1 (repeat unit)	class 1
*c1ccc(-c2ccc3c(c2)C(CCCCCCCC)(CCCCCCCC)c2cc(*)ccc2-3)c(F)c1 (repeat unit)	class 0

In: Does glass transition temperature meet or surpass 100 °C for *C(F)(F)C1(F)C(F)(F)C(*)(F)C(F)(F)C(F)(F)C(F)(F)C1(F)F (repeat unit) ?
Out: class 1

In: Item *Oc1ccc(S(=O)(=O)c2ccc(-c3ccc(S(=O)(=O)c4ccc(Oc5ccc(-c6ccc(-c7ccc(*)cc7)cc6)cc5)cc4)cc3)cc2)cc1 (repeat unit) with glass transition temperature of 100 °C or above?
Out: class 1

In: I'd appreciate it if you could say whether */C=C/c1cc(OCCC(C)CCCC(C)C)c(*)cc1OC (repeat unit) has glass transition temperature at least equal to 100 °C.
Out: class 0

---

Each record here notes measured glass transition temperature.
Answer with a number only, understood to be in °C.

# count of solved cases: 4
Compound	glass transition temperature (°C)
*CCCCCCCCCCOc1ccc(/C=C2\CCC/C(=C\c3ccc(O*)cc3)C2=O)cc1 (repeat unit)	85.00
*c1ccc(Oc2ccc(NC(=O)c3ccc4c(c3)C(=O)N(c3ccc(Cc5ccc(N6C(=O)c7ccc(C(=O)Nc8ccc(Oc9ccc(C%10(*)NC(=O)c%11ccccc%11%10)cc9)cc8)cc7C6=O)cc5)cc3)C4=O)cc2)cc1 (repeat unit)	302.00
*C(=O)c1ccc2c(c1)C(=O)N(c1ccc(-c3c(-c4ccc(-c5ccccc5)cc4)cc(-c4ccc(OCCCCCCCCCCOc5ccc(-c6cc(-c7ccc(-c8ccccc8)cc7)c(-c7ccc(N8C(=O)c9ccc(*)cc9C8=O)cc7)c(-c7ccc(-c8ccccc8)cc7)c6)cc5)cc4)cc3-c3ccc(-c4ccccc4)cc3)cc1)C2=O (repeat unit)	103.50
*C(C(=O)OC)C(*)C(=O)OC(C)(C)C (repeat unit)	84.00

The reported glass transition temperature of the compound *Nc1ccc(NC(=O)c2ccc(C(=O)c3ccc(C(*)=O)c(C(=O)OCC)c3)cc2C(=O)OCC)cc1 (repeat unit) was 275.00

The reported glass transition temperature of the compound *CC(=O)NCCCCCCNC(=O)COC(=O)CCCCCCCCCCC(=O)O* (repeat unit) was 0.90

---

Parameter glass transition temperature: see the listing below.

Here is how some molecules turned out for glass transition temperature.
Molecule	Observed
*c1ccc(C(=O)Nc2ccc(Oc3ccc(Oc4ccc(NC(=O)c5ccc(Oc6ccc(-c7nn(*)c(=O)c8ccccc78)c7ccccc67)cc5)cc4C(F)(F)F)cc3)c(C(F)(F)F)c2)cc1 (repeat unit)	281.50 °C
*c1ccc2c(c1)C(=O)N(c1c(C)cc(-c3cc(C)c(-c4cc(C)c(N5C(=O)c6ccc(C(*)(C(F)(F)F)C(F)(F)F)cc6C5=O)c(C)c4)cc3C)cc1C)C2=O (repeat unit)	361.00 °C

With those in mind, consider the next molecule.
The molecule identified as *CC(*)(C)C(=O)OCCOCCOCCOc1ccc(/N=N/c2ccc(C#N)cc2)cc1 (repeat unit) registered its glass transition temperature at 37.00 °C

---

Readout type: glass transition temperature (°C)
Quick reminder: number only, in °C, skip the unit.

Worked cases, glass transition temperature given:
Compound	Readout type	Observed
*CCCCCCNC(=O)CC(=O)N* (repeat unit)	glass transition temperature	50.00
*c1cccc(N2C(=O)c3ccc(Oc4ccc(C(=O)c5ccc(Oc6ccc7c(c6)C(=O)N(*)C7=O)cc5)cc4)cc3C2=O)c1 (repeat unit)	glass transition temperature	239.00
*C1CCC(CC2CCC(N3C(=O)c4ccc(-c5ccc6c(c5)C(=O)N(*)C6=O)cc4C3=O)C(C)C2)CC1C (repeat unit)	glass transition temperature	260.00

Turning now to a further record.
Sample *Nc1ccc(CC(C)(C)NC(=O)CCCCCCCCC(*)=O)cc1 (repeat unit) ; glass transition temperature observed: 92.00

Data origin, for the record: the PolyMetriX glass transition set
